EXPERIMENTAL SYSTEM: HNF4alpha8 (COS-7 nuclear extract) (Homo sapiens, UniProt P41235-5 1-452)
Sequence: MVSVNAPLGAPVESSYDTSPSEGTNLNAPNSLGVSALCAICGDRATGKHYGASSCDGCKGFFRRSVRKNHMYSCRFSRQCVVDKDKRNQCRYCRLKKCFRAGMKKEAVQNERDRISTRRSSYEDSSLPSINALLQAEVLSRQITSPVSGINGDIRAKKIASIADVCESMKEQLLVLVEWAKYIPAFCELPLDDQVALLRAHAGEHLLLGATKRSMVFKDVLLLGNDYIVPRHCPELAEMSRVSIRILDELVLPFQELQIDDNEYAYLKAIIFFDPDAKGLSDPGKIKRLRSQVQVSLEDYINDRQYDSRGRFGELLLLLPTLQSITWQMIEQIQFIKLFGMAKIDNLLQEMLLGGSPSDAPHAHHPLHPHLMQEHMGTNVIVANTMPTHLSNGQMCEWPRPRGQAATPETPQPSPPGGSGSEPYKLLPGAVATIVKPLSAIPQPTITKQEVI
PROTOCOL DESCRIPTION: protein-binding microarray; COS-7 nuclear extract on double-stranded Agilent 4x180k PBM; binding buffer, salt, pH and temperature not given in the material; high values mean tight binding
CONDITION PARAMETERS: chain copies: 2; label: 3' end of strand 1 on the slide; dsDNA, one strand shown
The full ranking holds about 18,000 sequences; the median of “log2 normalized intensity” is about 0.36, and the highest 2% start at about 7.3. For the sample, the highest values were picked, then their nearest neighbours and some sequences at random.
So basically: is binding signal under 6 log2 normalized intensity? Then true. Not under? Then false.

Examples from the recorded data:
SEQUENCE CONTENT	GROUP
TTCGGGGCACTGCTCCCTGCCCCTACCCCCGCCTAGGGAGATTAGAGTATCGGTCGA	true
TCTTTGATTAGGAAAGGGAACTCCCTGACCGCCTAGGGAGATTAGAGTATCGGTCGA	true
TTGCAGACCTTGGTCAAAGTGACACATTCCGCCTAGGGAGATTAGAGTATCGGTCGA	true
GGACTTTGGTGTCTGACAGATAAGATTTGGGCCTAGGGAGATTAGAGTATCGGTCGA	true
ATGTGTTTGCATGACTCATAAAGAACAGTTGCCTAGGGAGATTAGAGTATCGGTCGA	true

Qu. For this sequence, is binding signal lower than 6 log2 normalized intensity? TTTTAATTAGAACTGTAATTGAGTAACCAGGCCTAGGGAGATTAGAGTATCGGTCGA
Ans. true

Qu. Just wondering, is binding signal of CACTATCACCAGGATGGGCCATGACCTTTAGCCTAGGGAGATTAGAGTATCGGTCGA below 6 log2 normalized intensity?
Ans. true

Qu. Dear reviewer, please state whether GGTTCTTCCACGACTCCCCCGCTCACCCCTGCCTAGGGAGATTAGAGTATCGGTCGA has binding signal strictly beneath 6 log2 normalized intensity.
Ans. true

Qu. # strict comparison: is reported binding signal < 6 log2 normalized intensity? input = AAGACTTTGGACTTTGGACCTGAGGCTTTTGCCTAGGGAGATTAGAGTATCGGTCGA
Ans. false

Qu. State whether 6 log2 normalized intensity exceeds binding signal recorded for GGAGAGGATGGGGACAAAGGTCAAGAAAGCGCCTAGGGAGATTAGAGTATCGGTCGA .
Ans. false

###

Overview of reported binding signal across a group of sequences:
EXPERIMENTAL SYSTEM: HNF4alpha8 (COS-7 nuclear extract) (Homo sapiens, UniProt P41235-5 1-452)
Sequence: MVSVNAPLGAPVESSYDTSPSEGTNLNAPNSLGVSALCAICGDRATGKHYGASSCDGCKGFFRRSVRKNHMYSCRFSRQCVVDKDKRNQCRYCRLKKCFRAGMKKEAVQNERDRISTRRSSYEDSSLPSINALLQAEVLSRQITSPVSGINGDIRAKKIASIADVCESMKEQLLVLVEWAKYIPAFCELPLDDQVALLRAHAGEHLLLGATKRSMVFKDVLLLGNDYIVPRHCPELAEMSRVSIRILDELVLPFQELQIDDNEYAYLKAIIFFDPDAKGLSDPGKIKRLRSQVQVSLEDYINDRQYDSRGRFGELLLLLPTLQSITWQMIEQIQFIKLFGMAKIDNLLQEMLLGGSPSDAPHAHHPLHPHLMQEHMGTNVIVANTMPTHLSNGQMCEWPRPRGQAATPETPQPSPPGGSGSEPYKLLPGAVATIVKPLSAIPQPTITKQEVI
PROTOCOL DESCRIPTION: protein-binding microarray; COS-7 nuclear extract on double-stranded Agilent 4x180k PBM; binding buffer, salt, pH and temperature not given in the material; high values mean tight binding
CONDITION PARAMETERS: chain copies: 2; label: 3' end of strand 1 on the slide; dsDNA, one strand shown
Over roughly 18,000 sequences, “log2 normalized intensity” has its median near 0.36; the highest 2% begin near 7.3. Many of the other results were omitted from the sample, so the highest values are more common in it than they were.
Quick reminder: number only, in log2 normalized intensity, skip the unit.

SEQUENCE CONTENT	EXPERIMENTAL SYSTEM	binding signal (log2 normalized intensity)
GACCTTCAGATGCAGTCCAGAAGGTCAGGAGCCTAGGGAGATTAGAGTATCGGTCGA	HNF4alpha8 (COS-7 nuclear extract) (Homo sapiens, UniProt P41235-5 1-452)	4.19

--- query ---
Qu. Could you share which binding signal value was measured for CTGCTGCCCAAAGGTCACCTCTTCAGATAGGCCTAGGGAGATTAGAGTATCGGTCGA ?
Ans. 3.89

###

EXPERIMENTAL SYSTEM: HNF4alpha8 (COS-7 nuclear extract) (Homo sapiens, UniProt P41235-5 1-452)
Sequence: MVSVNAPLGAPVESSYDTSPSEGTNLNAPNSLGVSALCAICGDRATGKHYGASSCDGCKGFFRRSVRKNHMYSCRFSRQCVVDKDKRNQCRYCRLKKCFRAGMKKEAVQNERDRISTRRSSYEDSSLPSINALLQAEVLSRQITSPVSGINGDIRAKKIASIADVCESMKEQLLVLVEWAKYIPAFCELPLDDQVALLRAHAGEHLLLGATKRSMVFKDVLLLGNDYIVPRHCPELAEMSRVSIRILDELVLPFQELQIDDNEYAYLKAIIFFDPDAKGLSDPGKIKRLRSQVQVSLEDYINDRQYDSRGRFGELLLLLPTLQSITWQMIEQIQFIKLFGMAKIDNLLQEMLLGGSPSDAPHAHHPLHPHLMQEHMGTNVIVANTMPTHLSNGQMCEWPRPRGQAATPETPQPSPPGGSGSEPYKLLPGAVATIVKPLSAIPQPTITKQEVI
PROTOCOL DESCRIPTION: protein-binding microarray; COS-7 nuclear extract on double-stranded Agilent 4x180k PBM; binding buffer, salt, pH and temperature not given in the material; high values mean tight binding
CONDITION PARAMETERS: chain copies: 2; label: 3' end of strand 1 on the slide; dsDNA, one strand shown
In all, about 18,000 sequences were measured (“log2 normalized intensity”: median about 0.36, highest 2% from about 7.3 on). What follows is part of a selection rich in the highest values, with near analogues and random picks from the rest.
REPORTED ENDPOINT: binding signal (log2 normalized intensity)
Return type: number; implicit unit log2 normalized intensity.

These solved cases illustrate the format of a correct answer.
SEQUENCE CONTENT	UNIT OF MEASUREMENT	MEASURED RESULT
AGATAGGACAGTGGTCTTTATGACTTGGGTGCCTAGGGAGATTAGAGTATCGGTCGA	log2 normalized intensity	1.4
CCTTTGGACTGTCCTTTGCTAGATTCTTTCGCCTAGGGAGATTAGAGTATCGGTCGA	log2 normalized intensity	2.13
AGGTCATGCATAGAAGTATGTCTGGGATTTGCCTAGGGAGATTAGAGTATCGGTCGA	log2 normalized intensity	0.935
GAGTTTAAATGACCTCTGCCCTTCCACCCAGCCTAGGGAGATTAGAGTATCGGTCGA	log2 normalized intensity	5.16
GATATTTAACCTTTGATCTGTAAGCTCTCTGCCTAGGGAGATTAGAGTATCGGTCGA	log2 normalized intensity	5.39

Qu. Record request: binding signal value, item TTTCTGTCCAGAGTTTAAATGACCTCTGCCGCCTAGGGAGATTAGAGTATCGGTCGA
Ans. 4.72

Qu. What measured binding signal goes with CCTTTGAGATAGCTATGATTATCCTTATCTGCCTAGGGAGATTAGAGTATCGGTCGA ?
Ans. -0.293

###

EXPERIMENTAL SYSTEM: HNF4alpha8 (COS-7 nuclear extract) (Homo sapiens, UniProt P41235-5 1-452)
Sequence: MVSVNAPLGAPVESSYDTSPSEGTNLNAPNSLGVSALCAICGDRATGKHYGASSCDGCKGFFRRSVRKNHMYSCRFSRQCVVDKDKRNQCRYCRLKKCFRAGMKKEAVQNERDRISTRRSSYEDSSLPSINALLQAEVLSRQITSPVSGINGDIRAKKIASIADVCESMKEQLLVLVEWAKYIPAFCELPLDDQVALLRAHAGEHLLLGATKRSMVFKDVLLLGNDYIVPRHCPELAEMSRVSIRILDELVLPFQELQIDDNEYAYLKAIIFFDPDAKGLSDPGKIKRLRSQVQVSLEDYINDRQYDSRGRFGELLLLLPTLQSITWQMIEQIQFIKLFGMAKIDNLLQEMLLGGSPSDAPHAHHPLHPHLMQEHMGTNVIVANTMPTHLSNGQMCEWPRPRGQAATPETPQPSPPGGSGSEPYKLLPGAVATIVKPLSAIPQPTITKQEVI
PROTOCOL DESCRIPTION: protein-binding microarray; COS-7 nuclear extract on double-stranded Agilent 4x180k PBM; binding buffer, salt, pH and temperature not given in the material; high values mean tight binding
CONDITION PARAMETERS: chain copies: 2; label: 3' end of strand 1 on the slide; dsDNA, one strand shown
The full ranking holds about 18,000 sequences; the median of “log2 normalized intensity” is about 0.36, and the highest 2% start at about 7.3. The sample holds the highest values, similar sequences and a random draw of the others, so the mix is not that of the screen.
REPORTED ENDPOINT: binding signal (log2 normalized intensity)
Could you give me the number in log2 normalized intensity? Just the number is fine.

SEQUENCE CONTENT	UNIT OF MEASUREMENT	binding signal
GCATTAACATCAACATGGACTTTGAGTCATGCCTAGGGAGATTAGAGTATCGGTCGA	log2 normalized intensity	6.9
CAGCAACACTCTACTACTTGACCTTTGAAAGCCTAGGGAGATTAGAGTATCGGTCGA	log2 normalized intensity	6.62
CAAGCTTGATCCAGGATCCTTCTTGACCAGGCCTAGGGAGATTAGAGTATCGGTCGA	log2 normalized intensity	1.18
CCTTACCTCCATTAACTAACCTTTGAACCAGCCTAGGGAGATTAGAGTATCGGTCGA	log2 normalized intensity	7.58
CTGCCTTTCCCAGATGGATTGATAGACTTAGCCTAGGGAGATTAGAGTATCGGTCGA	log2 normalized intensity	0.78
CTGCTTGATAGCCATCTGGTGGACTTTGCTGCCTAGGGAGATTAGAGTATCGGTCGA	log2 normalized intensity	6.09

Qu. Value lookup for binding signal; key = TCACAGTGCCTCTGCAAGTTGGCCTTACTAGCCTAGGGAGATTAGAGTATCGGTCGA
Ans. -0.0691

Qu. Fill in the blank: the reported binding signal of GGTCCTAAGACTAACCTTTGACCATCCACGGCCTAGGGAGATTAGAGTATCGGTCGA is ____.
Ans. 6.44
